# experiment_notes: AUC (0 to infinity) in Sprague-Dawley rat at 10 mg/kg, po
# Format: ADME, organism-based
# Set-up: dose 10 mg/kg, route oral, time infinity
# recorded_conditions: plasma
attribute_measured: AUC(0-inf)

Enquiry: Please report AUC(0-inf) for the following compound: COc1ccc(N(C(=O)CN2C=CN(c3ccccc3)C(=O)[C@H](Cc3n[nH]c4ccccc34)C2=O)C(C)C)cc1
Return: 260 ng·h/mL

---

# tgt: Melanocortin receptor 4 (Homo sapiens, UniProt P32245)
# Sequence (P32245 whole entry): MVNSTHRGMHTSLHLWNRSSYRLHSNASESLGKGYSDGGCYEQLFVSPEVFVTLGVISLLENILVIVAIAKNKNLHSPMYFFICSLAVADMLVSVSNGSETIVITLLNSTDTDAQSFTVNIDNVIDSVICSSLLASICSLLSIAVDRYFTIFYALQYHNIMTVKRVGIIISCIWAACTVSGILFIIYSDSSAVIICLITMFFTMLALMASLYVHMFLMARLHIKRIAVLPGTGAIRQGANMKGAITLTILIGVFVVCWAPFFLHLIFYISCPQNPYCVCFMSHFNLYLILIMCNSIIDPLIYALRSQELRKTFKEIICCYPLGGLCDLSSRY
# experiment_notes: Agonist activity at human MC4R expressed in CHO cells after 4 hrs by luciferase reporter gene assay relative to alpha-melanocyte stimulating hormone
# Format: functional, cell-based
So I've got a bunch of molecules here, and I need their Activity values.
Answers are plain numbers.

These solved cases illustrate the format of a correct answer.
molecule	attribute_measured	reported_measurement
COc1ccc(N(C(=O)CN2C=CN(c3ccccc3)C(=O)C(Cc3n[nH]c4ccccc34)(OC)C2=O)C(C)C)cc1 (racemic)	Activity	74
COc1ccc(N(C(=O)CN2C=CN(c3ccccc3)C(=O)C(Cc3n[nH]c4ccccc34)C2=O)C(C)C)cc1 (racemic)	Activity	45
CC(C)N(C(=O)CN1C=CN(c2ccccc2)C(=O)C(Cc2n[nH]c3ccccc23)C1=O)c1ccc(F)cc1 (racemic)	Activity	22
CC(C)N(C(=O)CN1C=CN(c2ccccc2)C(=O)[C@H](Cc2n[nH]c3ccccc23)C1=O)c1ccccc1	Activity	26
CC(C)N(C(=O)CN1C=CN(c2ccccc2)C(=O)C(Cc2n[nH]c3ccccc23)C1=O)c1ccccc1 (racemic)	Activity	22
O=C1C(Cc2n[nH]c3cc(F)ccc23)C(=O)N(c2ccccc2)C=CN1CC(=O)N1CCCCc2ccccc21 (racemic)	Activity	16

Now for another entry.
Enquiry: Please report Activity for the following molecule: COc1ccc(N(C(=O)CN2C=CN(c3cccnc3)C(=O)C(Cc3n[nH]c4ccccc34)C2=O)C(C)C)cc1 (racemic)
Return: 31
